protocol_summary: High Content Assay for Compounds that inhibit the Assembly of the Perinucleolar Compartment;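 further: plate controls were DMSO wells for no effect and camptothecin positive control wells for full effect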
run_parameters: PC3M PTB-GFP, PNC prevalence imaging, 16 h; at 10 µM; stronger effect = lower value
Protocol: High Content Assay for Compounds that inhibit the Assembly of the Perinucleolar Compartment NIH Chemical Genomics Center [NCGC] NIH Molecular Libraries Probe Centers Network [MLPCN] […] PNC High Content Imaging Assay Procedure: 1. […] PNC prevalence was determined using the Multitarget analysis module from InCell Workstation software (V3.5 ) and analysis was run on a quad core workstation using the Incell Developer Toolbox (V1.7). […]
Screen size: about 140,000 compounds; about 4,300 (3.1%) were called active. Another 21% or so got no clear call; they are omitted. The list comes from a sample in which actives are over-represented; it also holds close analogues and randomly drawn compounds.
activity change (PNC), negative = inhibition: recorded values
measured_parameter: activity change (PNC), negative = inhibition

* COc1ccc(C(=O)NNS(=O)(=O)c2ccc(C)cc2)cc1 | -23.7% (inactive)
* CCc1ccc(-c2cc(C(=O)NN3CCN(C)CC3)c3ccccc3n2)cc1 | -5.44% (inactive)
* COC(=O)c1ccc(Cc2ccccc2)o1 | 13.6% (inactive)
* COc1ccc(C(=O)Nc2c(Cl)cc(Cl)cc2C(=O)N2CCC(C)CC2)cc1 | -10.7% (inactive)
* Cc1cc(Cl)c(S(=O)(=O)NCC2CCCO2)cc1OCC(N)=O (stereo not drawn) | 9.99% (inactive)
* Cc1c(Cl)c([N+](=O)[O-])nn1CCCC(=O)NC(C)c1ccccc1 (stereo not drawn) | -83.2% (active)
* CCn1c(C(C)NC(=O)c2ccc(C)cc2)n[nH]c1=S (stereo not drawn) | 8.92% (inactive)
* COCC(C)n1c(SCc2ccc(C(=O)OC)o2)nc2ccccc2c1=O (stereo not drawn) | 1.64% (inactive)
* CC(=O)c1ccc(NC(=S)NC(=O)CC(C)C)cc1 | 18.7% (inactive)
* COc1ccc2c(c1)C(SCC(=O)NCc1ccccc1)CC(C)(C)O2 (stereo not drawn) | 27.2% (inactive)
* COC(=O)c1ccc(CSc2nc3ccccc3c(=O)n2-c2cccc(OC)c2)o1 | 7.85% (inactive)
* CCOc1ccccc1Nc1nnc(SCc2ccc(C(=O)OC)o2)s1 | 30.2% (inactive)
* COC(=O)c1sccc1NC(=O)COc1ccc(Cl)cc1 | -3.53% (inactive)
* CS(=O)(=O)N(Cc1ccc(Cl)cc1)c1ccc(C(=O)NCCSCc2ccco2)cc1 | 22.9% (inactive)
* CCOC(=O)/C(=N\Nc1cc(Cl)ccc1Cl)N1CCN(C)CC1 | -27.3% (inactive)
* COC(=O)c1ccc(CSc2ccc3nnc(-c4ccccc4)n3n2)o1 | -97.8% (active)
* Cc1cc(Cl)c(S(=O)(=O)N(C)C)cc1OCC(N)=O | -29.4% (inactive)
* COc1cc(OC)cc(C(=O)NCCSCc2ccco2)c1 | -94.6% (active)
* Cc1ccccc1N/C(SCc1ccc(Cl)cc1)=C(/C#N)C(N)=O | -1.22% (inactive)
* Cc1cccc(C(=O)NC(=S)N2CCN(c3ccc([N+](=O)[O-])cc3)CC2)c1 | 8.71% (inactive)
* O=C(/C=C/c1ccc([N+](=O)[O-])cc1)NCCSCc1ccco1 | 85.9% (inactive)
* CC(NC(=O)CCC(=O)N1CCN(S(=O)(=O)c2ccc(Cl)cc2)CC1)c1ccccc1 (stereo not drawn) | -12.6% (inactive)
* C=CCNC(=O)/C(=C\c1cccc([N+](=O)[O-])c1)NC(=O)c1ccccc1 | 48.8% (inactive)

Each recorded value in this set is attributed to PubChem BioAssay AID2417.
